# STUDY SYSTEM: UniProt P53396
# ASSAY COMMENT: ADP-Glo Assay
READOUT KIND: IC50

Solved cases below.
{"columns": ["SMI", "REPORTED RESULT"],
 "data": [
  ["O=S(=O)(N[C@H]1C[C@H](c2ccc(F)cc2)C1)c1cc(Cl)cc(Cl)c1O", "500 to 20000 nM"],
  ["COC(=O)c1cc(Cl)c(OC)c(S(=O)(=O)Nc2cc(-c3ccccc3)ccc2OC)c1", "> 20000 nM"],
  ["CC(C)(C)C1CCN(S(=O)(=O)Nc2cc(-c3ccccc3)ccc2C(=O)O)CC1", "500 to 20000 nM"],
  ["O=S(=O)(Nc1cc(-c2ccccc2)ccc1F)c1cccc(Cl)c1O", "50 to 500 nM"],
  ["O=S(=O)(c1cc(Cl)cc(Cl)c1O)N(Cc1ccccc1)Cc1cccc(-c2ccccc2)c1", "500 to 20000 nM"]
]}

Could I get IC50 for every one of these entries?
1. O=C(c1cc(Cl)c(O)c(S(=O)(=O)Nc2cc(C3CC3)c(F)cc2F)c1)N1CCCC1
2. O=C(O)c1ccc(-c2ccccc2)cc1NS(=O)(=O)c1cc(Cl)ccc1Cl
3. O=S(=O)(Nc1cc(F)cc(N2CCOCC2)c1)c1cc(Cl)cc(Cl)c1O
4. O=S(=O)(Nc1cc(-c2ccccc2)ccc1F)c1cc(Br)ccc1O
5. N#Cc1cc(Cl)cc(S(=O)(=O)Nc2cc(-c3ccccc3)ccc2F)c1O

Reply:
["500 to 20000 nM", "500 to 20000 nM", "500 to 20000 nM", "500 to 20000 nM", "500 to 20000 nM"]

Quick one: give me IC50 for each item below, same order please.
1. COc1ccc(-c2ccccc2)cc1NS(=O)(=O)c1cc(Cl)cc(Cl)c1
2. COc1ccc(-c2ccccc2)cc1NS(=O)(=O)c1cc(C(=O)NCCN)cc(Cl)c1O
3. COc1ccc(-c2ccccc2)cc1NS(=O)(=O)c1cc(F)cc(F)c1O
4. Cc1nn(C)c(Cl)c1S(=O)(=O)Nc1cc(-c2ccccc2)ccc1C(=O)O

Reply:
1. > 20000 nM
2. 500 to 20000 nM
3. 500 to 20000 nM
4. 500 to 20000 nM

For each of the items listed, what is its IC50?
1. O=c1[nH]cc(C(F)(F)F)cc1S(=O)(=O)Nc1cc(-c2ccccc2)ccc1F
2. NC(=O)Cc1ccc(-c2ccccc2)cc1NS(=O)(=O)c1cc(Cl)cc(Cl)c1
3. CC(C)n1c(NS(=O)(=O)c2cc(Cl)cc(Cl)c2O)c(-c2ccc(F)cc2)c2ccccc21
4. COc1c(Cl)cc(Cl)cc1S(=O)(=O)Nc1cc(-c2cc3ccccc3s2)ccc1C(=O)O

Reply:
["50 to 500 nM", "500 to 20000 nM", "500 to 20000 nM", "500 to 20000 nM"]

---

# STUDY SYSTEM: ACL (Homo sapiens (Human))
# ASSAY COMMENT: ADP-Glo Assay
pIC50: −log10 of the molar value.
I'd be grateful if you could share measured pIC50 for these entries.

Some solved entries appear below for comparison.
{"columns": ["SMI", "STUDY SYSTEM", "READOUT KIND", "REPORTED RESULT"],
 "data": [
  ["O=C(O)c1cc(Cl)c(Cl)c(S(=O)(=O)Nc2cc(-c3ccccc3)ccc2F)c1", "ACL (Homo sapiens (Human))", "pIC50", "4.70 to 6.30"],
  ["O=C(O)c1ccc(-c2ccccc2)cc1NS(=O)(=O)CC1CCCC1", "ACL (Homo sapiens (Human))", "pIC50", "4.70 to 6.30"],
  ["CC(C)(C)OC(=O)NC1CN(C(=O)c2cc(Cl)c(O)c(S(=O)(=O)Nc3cc(-c4ccccc4)c(F)cc3F)c2)C1", "ACL (Homo sapiens (Human))", "pIC50", "4.70 to 6.30"]
]}

Return reported pIC50 values for all items listed beneath this line.
1. O=S(=O)(Nc1cc(-c2ccccc2)ccc1OC(F)(F)F)c1cc(Cl)cc(Cl)c1O
2. COc1ccc(-c2cccnc2)cc1NS(=O)(=O)c1cc(C(=O)N2CCC2)cc(Cl)c1O
3. O=C(Nc1cc(-c2cc3ccccc3s2)ccc1C(=O)O)c1cc(Cl)cc(Cl)c1
4. O=S(=O)(Nc1cc(-c2ccccc2)c(F)cc1F)c1cccc(Cl)c1Cl
5. O=S(=O)(Nc1cc(-c2ccccc2)ccc1F)c1cc(Cl)cc(Br)c1O

Reply:
["6.30 to 7.30", "6.30 to 7.30", "4.70 to 6.30", "4.70 to 6.30", "6.30 to 7.30"]

Task item: Test system ACL (Homo sapiens (Human)); read-out pIC50; what value for `O=C(c1cc(Cl)c(O)c(S(=O)(=O)Nc2cc(C3CC3)c(F)cc2F)c1)N1CC(F)C1` ?
Reply: 6.30 to 7.30

---

Exercise: for every item that follows, state its recorded IC50.
# STUDY SYSTEM: UniProt P53396
# ASSAY COMMENT: ADP-Glo Assay

// below: answered compounds
{"columns": ["COMPOUND", "REPORTED RESULT"],
 "data": [
  ["Cn1ncc(-c2ccccc2)c1NS(=O)(=O)c1cc(Cl)cc(Cl)c1O [I-109]", "0.5 to 20 µM"],
  ["COc1ccc(-c2ccccc2)cc1NS(=O)(=O)c1cc(Br)cc(Cl)c1O [I-21]", "0.05 to 0.5 µM"],
  ["O=C(O)COc1ccc(-c2ccccc2)cc1NS(=O)(=O)c1cc(Cl)cc(Cl)c1 [I-244]", "0.5 to 20 µM"],
  ["COc1c(Cl)cc(C(=O)N2CCC2)cc1S(=O)(=O)Nc1cc(-c2ccccc2)c(F)cc1F [I-378]", "> 20 µM"],
  ["O=C(Nc1ccccc1)c1ccc(F)c(NS(=O)(=O)c2cc(Cl)cc(Cl)c2O)c1 [I-61]", "0.5 to 20 µM"]
]}

Could you report IC50 for every entry in the following list?
1. O=S(=O)(Nc1ccc(F)cc1F)c1cc(Cl)cc(-c2nn[nH]n2)c1 [I-373]
2. COc1ccc(N2CCCCC2)cc1NS(=O)(=O)c1cc(Cl)cc(Cl)c1O [I-10]
3. O=C(O)c1cc(Cl)c(O)c(S(=O)(=O)Nc2cc(-c3cc4ccccc4s3)c(F)cc2F)c1 [I-507]
4. COc1ccc(-c2ccccc2)cc1NS(=O)(=O)c1cc(C(=O)N(C)C)cc(Cl)c1OC [I-434]
5. CC#Cc1cc(Cl)ccc1N(C)S(=O)(=O)c1cc(Br)cc(Cl)c1O [I-516]
6. O=S(=O)(Nc1cc(-c2ccccc2)c(F)cc1F)c1cc(F)cc(Cl)c1O [I-135]

Reply:
> 20 µM
0.5 to 20 µM
0.05 to 0.5 µM
> 20 µM
0.5 to 20 µM
0.05 to 0.5 µM

// batch mode: one IC50 value per listed entry
1. O=C(O)c1ccc(C2CC2)cc1NS(=O)(=O)c1cc(Cl)cc(C(F)(F)F)c1 [I-344]
2. O=S(=O)(Nc1cnc(-c2ccccc2)s1)c1cc(Cl)cc(Cl)c1O [I-189]
3. COc1ccc(-c2ccccc2)cc1NS(=O)(=O)c1cccc(-c2nn[nH]n2)c1 [I-19]
4. CC(C)Oc1ccc(F)cc1NS(=O)(=O)c1cc(Cl)cc(Cl)c1O [I-163]
5. NC(=O)c1sc2ccccc2c1NS(=O)(=O)c1cc(Cl)cc(Cl)c1O [I-174]
6. O=S(=O)(Nc1cc(-c2ccccc2)ccc1F)c1cc(Br)cc(Cl)c1O [I-34]
7. COC(=O)c1cc(Cl)c(OC)c(S(=O)(=O)Nc2cc(-c3ccccc3)c(F)cc2F)c1 [I-63]

Reply:
0.5 to 20 µM
0.5 to 20 µM
0.5 to 20 µM
0.5 to 20 µM
0.5 to 20 µM
0.05 to 0.5 µM
0.5 to 20 µM

---

# STUDY SYSTEM: ACL (Homo sapiens (Human), UniProt P53396)
# Sequence (P53396 other isoform, or with tags, fused parts or gaps isoform P53396-2): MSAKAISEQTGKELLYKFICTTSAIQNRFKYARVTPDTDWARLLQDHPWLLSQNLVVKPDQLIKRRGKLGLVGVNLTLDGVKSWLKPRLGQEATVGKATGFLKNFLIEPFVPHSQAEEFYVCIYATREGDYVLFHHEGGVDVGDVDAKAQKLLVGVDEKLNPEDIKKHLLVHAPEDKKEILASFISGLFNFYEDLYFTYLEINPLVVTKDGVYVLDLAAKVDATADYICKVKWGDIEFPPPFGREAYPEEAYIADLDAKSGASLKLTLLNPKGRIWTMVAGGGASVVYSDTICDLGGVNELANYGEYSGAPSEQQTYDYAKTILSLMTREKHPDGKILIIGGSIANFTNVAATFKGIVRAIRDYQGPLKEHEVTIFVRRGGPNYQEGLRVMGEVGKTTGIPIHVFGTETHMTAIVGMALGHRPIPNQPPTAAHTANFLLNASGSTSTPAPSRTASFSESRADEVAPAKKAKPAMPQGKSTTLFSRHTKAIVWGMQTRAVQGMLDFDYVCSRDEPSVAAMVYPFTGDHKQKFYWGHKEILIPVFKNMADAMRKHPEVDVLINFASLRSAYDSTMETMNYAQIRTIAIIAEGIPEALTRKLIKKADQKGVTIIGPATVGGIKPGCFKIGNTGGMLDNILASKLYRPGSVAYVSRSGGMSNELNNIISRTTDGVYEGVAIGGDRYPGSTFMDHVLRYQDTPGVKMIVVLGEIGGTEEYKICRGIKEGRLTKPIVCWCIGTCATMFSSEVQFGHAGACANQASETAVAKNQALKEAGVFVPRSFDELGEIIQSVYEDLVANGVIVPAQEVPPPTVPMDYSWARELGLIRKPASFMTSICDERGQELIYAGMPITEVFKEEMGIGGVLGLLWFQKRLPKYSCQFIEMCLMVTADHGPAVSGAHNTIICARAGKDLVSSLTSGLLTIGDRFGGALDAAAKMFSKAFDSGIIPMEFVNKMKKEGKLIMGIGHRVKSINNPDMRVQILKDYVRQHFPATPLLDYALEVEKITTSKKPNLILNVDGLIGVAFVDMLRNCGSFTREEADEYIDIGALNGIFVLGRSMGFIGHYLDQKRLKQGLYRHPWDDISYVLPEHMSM
# ASSAY COMMENT: ADP-Glo Assay
Task for the reader: assign each of the following molecules its reported IC50.

{"columns": ["SMI", "IC50"],
 "data": [
  ["COc1ccc(-c2ccccc2)cc1NS(=O)(=O)c1cc(Cl)cc(C(=O)O)c1OC", "> 20 µM"],
  ["O=C(Nc1cc(Br)ccc1C(=O)O)c1cc(Cl)cc(Cl)c1", "0.5 to 20 µM"],
  ["COc1ccc(-c2ccccc2)cc1NS(=O)(=O)c1c(C)nn(C)c1Cl", "> 20 µM"],
  ["COc1ccc(-c2ccc(OC)c(NS(=O)(=O)c3cc(Cl)cc(Cl)c3O)c2)cc1", "0.5 to 20 µM"]
]}

List IC50 for every entry below, keeping the order given.
1. O=S(=O)(Nc1cc(-c2ccccc2)ccc1F)c1cc(Cl)ccc1O
2. COCc1cc(Cl)c(O)c(S(=O)(=O)Nc2cc(-c3ccccc3)c(F)cc2F)c1
3. N#Cc1cccc(S(=O)(=O)Nc2cc(-c3ccccc3)ccc2F)c1
4. O=C(Cc1cc(Cl)cc(Cl)c1)Nc1cc(-c2ccccc2)ccc1C(=O)O
5. CNC(=O)COc1c(Cl)cc(Cl)cc1S(=O)(=O)Nc1cc(-c2ccccc2)ccc1F

Reply:
0.5 to 20 µM
0.05 to 0.5 µM
> 20 µM
0.5 to 20 µM
0.5 to 20 µM
